Origin of measurements: patent US20160130226A1

- target-of-assay: AMPK beta 2 (Mus musculus, UniProt Q6PAM0+Q8BRK8)
- Construct: fully differentiated myotubes (C2C12 cells) grown in 96 well plate; endogenous in cells; host or cells: C2C12 myotubes (assignment to the beta 2 column inferred)
- Sequence (Q6PAM0 whole entry): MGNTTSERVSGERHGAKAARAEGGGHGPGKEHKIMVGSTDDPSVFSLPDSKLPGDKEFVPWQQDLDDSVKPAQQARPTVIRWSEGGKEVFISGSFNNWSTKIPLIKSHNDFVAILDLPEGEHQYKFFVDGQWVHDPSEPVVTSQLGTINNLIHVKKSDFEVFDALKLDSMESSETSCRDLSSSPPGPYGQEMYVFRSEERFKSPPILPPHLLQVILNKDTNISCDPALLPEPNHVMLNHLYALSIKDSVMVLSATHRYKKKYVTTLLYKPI
- Sequence (Q8BRK8 whole entry): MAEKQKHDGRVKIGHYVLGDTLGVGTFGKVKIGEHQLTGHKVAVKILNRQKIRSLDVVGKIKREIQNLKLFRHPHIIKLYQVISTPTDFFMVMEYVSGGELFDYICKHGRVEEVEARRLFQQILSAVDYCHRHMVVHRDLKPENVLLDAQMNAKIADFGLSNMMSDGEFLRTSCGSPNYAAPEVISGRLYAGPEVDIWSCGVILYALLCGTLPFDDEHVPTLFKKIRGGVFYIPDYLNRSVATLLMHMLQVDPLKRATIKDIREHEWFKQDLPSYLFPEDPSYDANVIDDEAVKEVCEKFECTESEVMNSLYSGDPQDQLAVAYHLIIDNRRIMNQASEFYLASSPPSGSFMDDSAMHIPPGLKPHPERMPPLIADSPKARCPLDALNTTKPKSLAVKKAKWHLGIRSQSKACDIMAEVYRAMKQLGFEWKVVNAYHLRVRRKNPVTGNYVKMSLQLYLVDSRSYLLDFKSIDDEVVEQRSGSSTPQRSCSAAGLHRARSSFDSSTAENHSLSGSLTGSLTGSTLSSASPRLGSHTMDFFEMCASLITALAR
- Sequence (O54950 whole entry partner): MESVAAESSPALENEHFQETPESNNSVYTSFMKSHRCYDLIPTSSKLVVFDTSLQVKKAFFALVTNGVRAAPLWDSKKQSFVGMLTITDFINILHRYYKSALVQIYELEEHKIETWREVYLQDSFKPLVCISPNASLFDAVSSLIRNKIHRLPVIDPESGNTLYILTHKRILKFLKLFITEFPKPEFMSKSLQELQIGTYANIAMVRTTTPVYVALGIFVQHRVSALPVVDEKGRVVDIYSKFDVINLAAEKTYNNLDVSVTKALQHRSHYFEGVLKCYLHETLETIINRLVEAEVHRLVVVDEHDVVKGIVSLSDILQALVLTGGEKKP
- protocol-details: in-cell-ELISA for phospho-ACC: activation of AMPK, beta 2 (HepG2 cells / C2C12 myotubes)
- Type: cell-based
- assay-conditions: 2 h, 1 μM, percentage activation over vehicle control, read-out: Percentage activation of beta 2 at given concentration
result-type: activation at 1 µM (%)

The cases that follow already have their activation at 1 µM on record.
| compound | unit-text | activation at 1 µM |
| --- | --- | --- |
| CC(C)c1ccc(C2CC23C(=O)Nc2cc(Cl)c(-c4ccc(-c5ccc(-n6cncn6)cc5)cc4)cc23)cc1C(=O)O (centres unmarked) | % | 153 |
| Cc1ccc(C2CC23C(=O)Nc2cc(F)c(-c4ccc(-c5ccccc5O)cc4)cc23)cc1C(=O)O (centres unmarked) | % | 50 |
| O=C(O)c1cccc(C2CC23C(=O)Nc2cc(F)c(-c4ccc(-c5ccc(-n6cccn6)cc5)cc4)cc23)c1 (centres unmarked) | % | 50 |

I: Cc1ccc(C2CC23C(=O)Nc2c3cc(-c3ccc(-c4ccc(-n5cncn5)cc4)cc3)c(Cl)c2Cl)cc1C(=O)O (centres unmarked)
II: COc1ccc(C2CC23C(=O)Nc2cc(Cl)c(-c4ccc(-c5ccc(-n6ccnn6)cc5)cc4)cc23)cc1C(=O)O (centres unmarked)
Ask: Form: Entry with minimum activation at 1 µM (choose one): I / II // return label of chosen record
Reply: I
(I: 62%, II: 283%)

====

- target-of-assay: AMPK beta 1 (Homo sapiens, UniProt Q13131+Q9Y478)
- Construct: in-cell-ELISA for phospho-ACC (Acetyl-CoA carboxylase 1) in HepG2 cells (liver); endogenous in cells; host or cells: HepG2 (assignment to the beta 1 column inferred)
- Sequence (Q9Y478 2-270 limits assumed): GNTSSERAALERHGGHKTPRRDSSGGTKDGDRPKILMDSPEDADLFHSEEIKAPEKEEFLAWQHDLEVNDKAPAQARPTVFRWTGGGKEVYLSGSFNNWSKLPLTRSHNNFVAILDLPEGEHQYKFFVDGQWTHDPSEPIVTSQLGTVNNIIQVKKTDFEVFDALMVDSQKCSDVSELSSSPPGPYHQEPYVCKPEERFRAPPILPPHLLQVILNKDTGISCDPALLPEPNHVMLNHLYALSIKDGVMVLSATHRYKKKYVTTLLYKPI
- Sequence (Q13131 whole entry): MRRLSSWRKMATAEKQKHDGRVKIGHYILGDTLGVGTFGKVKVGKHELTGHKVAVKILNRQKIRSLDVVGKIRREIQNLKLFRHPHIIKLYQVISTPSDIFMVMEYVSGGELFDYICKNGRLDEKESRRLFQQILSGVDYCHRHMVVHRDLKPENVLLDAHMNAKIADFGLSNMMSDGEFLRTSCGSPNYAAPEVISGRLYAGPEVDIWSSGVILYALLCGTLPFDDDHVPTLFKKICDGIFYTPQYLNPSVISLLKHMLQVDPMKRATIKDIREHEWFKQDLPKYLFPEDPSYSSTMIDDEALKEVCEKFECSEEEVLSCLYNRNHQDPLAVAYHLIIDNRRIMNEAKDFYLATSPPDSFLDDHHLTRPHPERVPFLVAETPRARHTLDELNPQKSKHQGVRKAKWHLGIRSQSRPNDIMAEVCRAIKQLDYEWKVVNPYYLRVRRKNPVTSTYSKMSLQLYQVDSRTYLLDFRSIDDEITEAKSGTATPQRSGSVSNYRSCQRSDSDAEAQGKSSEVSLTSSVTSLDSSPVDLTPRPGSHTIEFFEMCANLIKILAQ
- Sequence (P54619 whole entry partner): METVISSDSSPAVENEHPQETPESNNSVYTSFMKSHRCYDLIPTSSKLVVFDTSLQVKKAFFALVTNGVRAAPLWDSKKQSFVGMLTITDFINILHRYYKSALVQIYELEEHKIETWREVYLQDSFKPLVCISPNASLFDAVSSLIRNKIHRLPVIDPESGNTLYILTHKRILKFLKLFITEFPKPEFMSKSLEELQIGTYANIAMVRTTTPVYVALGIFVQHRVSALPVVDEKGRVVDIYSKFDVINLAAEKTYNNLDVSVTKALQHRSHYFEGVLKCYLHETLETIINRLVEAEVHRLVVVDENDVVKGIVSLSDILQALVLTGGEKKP
- protocol-details: in-cell-ELISA for phospho-ACC: activation of AMPK, beta 1 (HepG2 cells / C2C12 myotubes)
- Type: cell-based
- assay-conditions: 3 μM, 2 h, percentage activation over vehicle control
result-type: Percentage activation of beta 1 at given concentration (% at 3 μM)

| molecule | target-of-assay | measured |
| --- | --- | --- |
| Cc1ccc(C2CC23C(=O)Nc2cc(Cl)c(-c4ccc(-c5ccc(-n6cncn6)cc5)cc4)cc23)cc1CO (stereo not shown) | AMPK beta 1 (Homo sapiens, UniProt Q13131+Q9Y478) | 34 |

1: O=C(O)Cc1cccc(C2CC23C(=O)Nc2cc(Cl)c(-c4ccc(-c5ccncc5)cc4)cc23)c1 (stereo not shown) [Example 58]
2: O=C(O)Cc1cccc(C2CC23C(=O)Nc2cc(Cl)c(-c4ccc(-c5ccncc5)cc4)cc23)c1 (stereo not shown) [Example 61]
3: Cc1ccc(C2CC23C(=O)N(CC2CC2)c2cc(Cl)c(-c4ccc(-c5ccncc5)cc4)cc23)cc1C(=O)O (stereo not shown)
Ask: Arrange by Percentage activation of beta 1 at given concentration, high to low. Answer by listing the labels in the requested order.
Reply: 2, 3, 1

====

- target-of-assay: AMPK beta 2 (Mus musculus, UniProt Q6PAM0+Q8BRK8)
- Construct: fully differentiated myotubes (C2C12 cells) grown in 96 well plate; endogenous in cells; host or cells: C2C12 myotubes (assignment to the beta 2 column inferred)
- protocol-details: in-cell-ELISA for phospho-ACC: activation of AMPK, beta 2 (HepG2 cells / C2C12 myotubes)
- Assay type: cell-based
- assay-conditions: 2 h, 3 μM, percentage activation over vehicle control, read-out: Percentage activation of beta 2 at given concentration
result-type: activation at 3 µM (%)

The cases that follow already have their activation at 3 µM on record.
| compound | target-of-assay | unit-text | activation at 3 µM |
| --- | --- | --- | --- |
| Cc1ccc(C2CC23C(=O)Nc2cc(Cl)c(-c4ccc(-c5ccc(-n6cccn6)cc5)cc4)cc23)cc1C(=O)O (stereo not shown) | AMPK beta 2 (Mus musculus, UniProt Q6PAM0+Q8BRK8) | % | 57 |
| Cc1ccc(C2CC23C(=O)Nc2cc(Cl)c(-c4ccc(-c5ccncc5)cc4)cc23)cc1C(=O)O (stereo not shown) | AMPK beta 2 (Mus musculus, UniProt Q6PAM0+Q8BRK8) | % | 105 |
| O=C(O)c1cccc(C2CC23C(=O)Nc2cc(Cl)c(-c4ccc(-c5ccncc5)cc4)cc23)c1 (stereo not shown) | AMPK beta 2 (Mus musculus, UniProt Q6PAM0+Q8BRK8) | % | 54 |

P: Cc1ccc(C2CC23C(=O)Nc2cc(Cl)c(-c4ccc(-c5ccnc(N(C)C)c5)cc4)cc23)cc1C(=O)O (stereo not shown)
Q: CC(C)(C(=O)O)c1ccc(C2CC23C(=O)Nc2cc(Cl)c(-c4ccc(-c5ccccc5O)cc4)cc23)cc1 (stereo not shown)
R: CCN1C(=O)C2(CC2c2ccc(C)c(C(=O)O)c2)c2cc(-c3ccc(-c4ccncc4)cc3)c(Cl)cc21 (stereo not shown)
Ask: Arrange by activation at 3 µM, high to low. Answer by listing the labels in the requested order.
Reply: Q, P, R
(Q: 106%, P: 49%, R: 2%)
